# assay-info: Cytotoxicity against mouse RAW264.7 cells at 100 uM after 72 hrs by MTT assay
# Assay type: cell-based
# stated-conditions: read-out: INH
Entries annotated with measured cytotoxicity at 72 h, 100 µM
quantity-name: cytotoxicity at 72 h, 100 µM (%)

>>> reported_result("Cc1nc2ccccc2c(=O)n1CC(=O)NCc1ccco1")
41.5
>>> reported_result("O=C(Cn1cnc2ccccc2c1=O)NCc1cccs1")
41.4
>>> reported_result("O=C(Cn1cnc2ccccc2c1=O)NCc1ccco1")
13.7
>>> reported_result("Cc1nc2ccc(Cl)cc2c(=O)n1CC(=O)NCc1cccs1")
51.7
